Give measured Percent Control for each item. Keep answers brief.
test system: ICK; details: Compound Concentration (nM):1000;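 also: KINOMEscan scanMAX binding as percent activity remaining versus control; lower means stronger binding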
Number in %, nothing else.

Query :: Return Percent Control (reported value) for this compound: COc1cc2ncnc(Nc3ccc4c(cnn4Cc4ccccc4)c3)c2cc1OC.Cl [GW282449A]
Result :: 100

Query :: Return Percent Control (reported value) for this compound: CN(C)c1cc2c(Nc3ccc4c(cnn4Cc4ccccc4)c3)ncnc2cn1 [GW282974X]
Result :: 90

Query :: Return Percent Control (reported value) for this compound: COC(=O)Nc1nc2ccc(Oc3ccc(NC(=O)Nc4cc(C(F)(F)F)ccc4F)cc3)cc2s1.Cl [GW693917A]
Result :: 78

Query :: Return Percent Control (reported value) for this compound: COc1cccc(-c2c[nH]c3c(N/N=C/c4ccncc4)ncnc23)c1 [GW814408X]
Result :: 33

Query :: Return Percent Control (reported value) for this compound: COc1cc(C=NNc2ncnc3c2cnn3-c2ccccc2)ccc1O [GW513184X]
Result :: 91

Query :: Return Percent Control (reported value) for this compound: CCc1ccc(Oc2nccc(-c3c(-c4ccc(F)cc4)ncn3C3CCNCC3)n2)cc1
Result :: 100

Query :: Return Percent Control (reported value) for this compound: COc1ccccc1-c1cc(/C=C2\C(=O)Nc3ncc(Br)cc32)cc(Br)c1O [GW442130X]
Result :: 81

Query :: Return Percent Control (reported value) for this compound: COc1cc2ncn(-c3cc(O[C@H](C)c4ccccc4Cl)c(C(N)=O)s3)c2cc1OC [GSK237701A]
Result :: 91

---

test system: DYRK2; conditions: Compound Concentration (nM):1000
Output TRUE for records whose Percent Control is lower than 70%, FALSE for records at or above 70%.

Query :: # check: Percent Control < 70% for C[C@@H](Oc1cc(-n2cnc3ccc(OC4CCN(C)CC4)cc32)sc1C(N)=O)c1ccccc1Cl [GSK579289A]
Result :: TRUE

Query :: # check: Percent Control < 70% for Cl.O=C(Nc1ccc(Oc2ccc3[nH]c(NC(=O)c4ccccc4)nc3c2)cc1)Nc1cc(C(F)(F)F)ccc1F [GW709042A]
Result :: FALSE

Query :: # check: Percent Control < 70% for COc1cc(/C=N/Nc2ncnc3[nH]ncc23)ccc1O [GW578748X]
Result :: TRUE

Query :: # check: Percent Control < 70% for CCn1c(-c2nonc2N)nc2c(C#CC(C)(C)O)nc(OCCNC)cc21.Cl [GSK949675]
Result :: FALSE

Query :: # check: Percent Control < 70% for COc1cccc(-n2ncc3c(N/N=C/c4ccncc4)ncnc32)c1 [GW784752X]
Result :: TRUE

Query :: # check: Percent Control < 70% for Cl.c1ccc(Cc2nc3ccc(Nc4ncnc5ccccc45)cc3[nH]2)cc1 [GR269666A]
Result :: FALSE

---

Give measured Percent Control for each item. Keep answers brief.
system: TGFBR1; details: Compound Concentration (nM):1000
Number in %, nothing else.

Query :: Return Percent Control (reported value) for this compound: COc1cc(C)c(N(C)C(=O)CN(C)C)cc1Nc1nc(Nc2cccc(F)c2C(N)=O)c2cc[nH]c2n1
Result :: 100

Query :: Return Percent Control (reported value) for this compound: COc1cc(C=NNc2ncnc3c2cnn3-c2ccccc2)ccc1O [GW513184X]
Result :: 79

Query :: Return Percent Control (reported value) for this compound: CC(C)COC(=O)c1ccc2c(c1)/C(=C/Nc1ccc(S(N)(=O)=O)cc1)C(=O)N2 [GW416981X]
Result :: 100

Query :: Return Percent Control (reported value) for this compound: CC1=C(C(=O)Nc2ccc3[nH]ncc3c2)C(c2ccc(Cl)c(Cl)c2)CC(=O)N1 (centres unmarked) [GSK299115A]
Result :: 100

Query :: Return Percent Control (reported value) for this compound: C/C(Nc1ccc(S(N)(=O)=O)cc1)=C1/C(=O)Nc2ccccc21 [GW335962X]
Result :: 88

Query :: Return Percent Control (reported value) for this compound: Cl.O=C(O[C@H]1CN[C@H](C#Cc2cc3ncnc(Nc4ccc5c(cnn5Cc5ccccc5)c4)c3s2)C1)N1CCOCC1 [GSK200398A]
Result :: 97

Query :: Return Percent Control (reported value) for this compound: COc1cccc(-n2ncc3c(N/N=C/c4ccncc4)ncnc32)c1 [GW784752X]
Result :: 36

Query :: Return Percent Control (reported value) for this compound: CN(C)c1cc2c(Nc3ccc4c(cnn4Cc4ccccc4)c3)ncnc2cn1 [GW282974X]
Result :: 100

Query :: Return Percent Control (reported value) for this compound: COc1ccc2cc(-c3c(-c4ccncc4)nc(-c4ccc(S(C)(=O)=O)cc4C)n3C)ccc2c1
Result :: 9.7

Query :: Return Percent Control (reported value) for this compound: Cl.c1ccc(Cc2nc3ccc(Nc4ncnc5ccccc45)cc3[nH]2)cc1 [GR269666A]
Result :: 100

Query :: Return Percent Control (reported value) for this compound: COc1ccc2[nH]c3c4[nH]c5ccc(OC)cc5c4c4c(c3c2c1)C(=O)NC4=O [GW296115X]
Result :: 100

Query :: Return Percent Control (reported value) for this compound: NS(=O)(=O)c1ccc(Nc2ncc(-c3ccccc3)o2)cc1 [GW572399X]
Result :: 100

Query :: Return Percent Control (reported value) for this compound: NS(=O)(=O)c1ccc(N/N=C2\C(=O)Nc3ccc(C(=O)NCCc4c[nH]cn4)cc32)cc1 [GW300660X]
Result :: 100

Query :: Return Percent Control (reported value) for this compound: NS(=O)(=O)c1ccc(N/N=C2\C(=O)Nc3ccc(C(=O)NCc4ccncc4)cc32)cc1 [GW300657X]
Result :: 100

Query :: Return Percent Control (reported value) for this compound: COc1cc(/C=N/Nc2ncnc3[nH]ncc23)ccc1O [GW578748X]
Result :: 100

Query :: Return Percent Control (reported value) for this compound: COc1cc(N2CCN(C(C)C)CC2)ccc1Nc1nc(Nc2ccc(F)cc2C(=O)NC[C@@H](O)CO)c2cc[nH]c2n1 [GSK1392956A]
Result :: 100

Query :: Return Percent Control (reported value) for this compound: O=C(Nc1n[nH]c2nc(-c3ccc(O)cc3)c(Br)cc12)C1CC1
Result :: 100

---

tested on: MARK3; conditions: Compound Concentration (nM):1000
Give measured Percent Control for each item. Keep answers brief.
Number in %, nothing else.

Query :: Return Percent Control (reported value) for this compound: CCc1ccc(Oc2nccc(-c3c(-c4ccc(F)cc4)ncn3C3CCNCC3)n2)cc1
Result :: 61

Query :: Return Percent Control (reported value) for this compound: CC1=C(C(=O)Nc2ccc3[nH]ncc3c2)C(c2ccc3ccccc3c2)CC(=O)N1 (stereo not drawn) [GSK270822A]
Result :: 100

Query :: Return Percent Control (reported value) for this compound: COc1cc2ncnc(Nc3ccc4c(cnn4Cc4ccccc4)c3)c2cc1OC.Cl [GW282449A]
Result :: 100

Query :: Return Percent Control (reported value) for this compound: NS(=O)(=O)c1ccc(Nc2ncc(-c3ccccc3)o2)cc1 [GW572399X]
Result :: 94

Query :: Return Percent Control (reported value) for this compound: COc1cccc(-n2ncc3c(N/N=C/c4ccncc4)ncnc32)c1 [GW784752X]
Result :: 100

Query :: Return Percent Control (reported value) for this compound: COc1cc(C)c(N(C)C(=O)CN(C)C)cc1Nc1nc(Nc2cccc(F)c2C(N)=O)c2cc[nH]c2n1
Result :: 89

Query :: Return Percent Control (reported value) for this compound: COc1ccccc1-c1cc(/C=C2\C(=O)Nc3ncc(Br)cc32)cc(Br)c1O [GW442130X]
Result :: 100

Query :: Return Percent Control (reported value) for this compound: NS(=O)(=O)c1ccc(N/N=C2\C(=O)Nc3ccc(-c4cnco4)cc32)cc1
Result :: 100

Query :: Return Percent Control (reported value) for this compound: NS(=O)(=O)c1ccc(N/N=C2\C(=O)Nc3ccc(Cl)cc32)cc1 [GW280670X]
Result :: 100

---

test system: PLK3; conditions: Compound Concentration (nM):1000
property measured: Percent Control (%)
Number in %, nothing else.

Query :: Return Percent Control (reported value) for this compound: COC(=O)Nc1nc2ccc(Oc3ccc(NC(=O)Nc4cc(C(F)(F)F)ccc4F)cc3)cc2s1.Cl [GW693917A]
Result :: 100

Query :: Return Percent Control (reported value) for this compound: CN1CCN(C(=O)c2ccc(NC(=O)Nc3ccc(N(C)c4ccnc(Nc5ccc(CS(C)(=O)=O)cc5)n4)cc3)cc2)CC1.Cl [GW830263A]
Result :: 100

Query :: Return Percent Control (reported value) for this compound: COc1cc(C=NNc2ncnc3c2cnn3-c2ccccc2)ccc1O [GW513184X]
Result :: 71

Query :: Return Percent Control (reported value) for this compound: Cl.O=C(Nc1ccc(Oc2ccc3[nH]c(NC(=O)c4ccccc4)nc3c2)cc1)Nc1cc(C(F)(F)F)ccc1F [GW709042A]
Result :: 92

Query :: Return Percent Control (reported value) for this compound: CCn1c(-c2nonc2N)nc2c(C#CC(C)(C)O)nc(OCCNC)cc21.Cl
Result :: 100

Query :: Return Percent Control (reported value) for this compound: CN(C)c1cc2c(Nc3ccc4c(cnn4Cc4ccccc4)c3)ncnc2cn1 [GW282974X]
Result :: 100

Query :: Return Percent Control (reported value) for this compound: NS(=O)(=O)c1ccc(Nc2ncc(-c3ccccc3)o2)cc1 [GW572399X]
Result :: 86
